Below is a list of entries, each paired with its recorded IC50 value.
- system tested: T1, human A-beta(1-40) peptide, monomeric (BAM) (human, biotin at the C-terminus in capture ELISA, SPR and TR-FRET; not biotinylated where coated directly (Example 7))
- T1 construct: synthetic peptide (Anaspec), TFA/HFIP treated to give monomer; also called monomeric A-beta
- run description: TR-FRET competition, mean IC50

Solved entries (count: 6):
{"binder": "ABII007 (VHH, humanized variant of ABII002) VHH: EVQLLESGGGLVLPGGSLRLSCVHSGPTFRTDTMGWFRQAPGKGREFVAAVTWNSGRINYADSVKGRFTISRDNTRNAAYLQMSGLKDEDTAVYYCTAHRFVVGGNRVEDWRYWGQGTLVTVSS", "IC50": "1.6 nM"}
{"binder": "ABII017 (VHH, humanized variant of ABII002) VHH: EVQLLESGGGLVLPGGSLRLSCVHSGPTFRTDTMGWFRQAPGKGREFVAAVTWNSGRINYADSVKGRFTVSRDNTRNAAYLQMSGLKDEDTAVYYCAAHRFVVGGNRVEDWRYWGQGTLVTVSS", "IC50": "2.4 nM"}
{"binder": "ABII028 (VHH, humanized variant of ABII002) VHH: EVQLLESGGGLVQPGGSLRLSCVHSGPTFRTDTMGWFRQAPGKGREFVAAVTWNSGRINYADSVKGRFTISRDNSKNTVYLQMNSLRPEDTAVYYCAAHRFVVGGNRVEDWRYWGQGTLVTVSS", "IC50": "11 nM"}
{"binder": "ABII60A10 = ABII050 (VHH) VHH: EVQLVESGGGLVQAGGSLRLSCAASGRTFNNYNMGWFRQAPGKEREFVAAVSRSGVSTYYADSVKGRFTISRDNAKNAVYLQMNSLKPEDTAIYYCGAAYRGTAINVRRSYDSWGQGTQVTVSS", "IC50": "19 nM"}
{"binder": "ABII060 (VHH, humanized variant of ABII050) VHH: EVQLLESGGGLVQPGGSLRLSCAASGRTFNNYNMGWFRQAPGKGREFVAAVSRSGVSTYYADSVKGRFTISRDNSKNTLYLQMNSLRPEDTAVYYCAAAYRGTAINVRRSYSSWGQGTLVTVSS", "IC50": "50 nM"}
{"binder": "ABII010 (VHH, humanized variant of ABII002) VHH: EVQLLESGGGLVLPGGSLRLSCVHSGPTFRTDTMGWFRQAPGKGREFVAAVTWNSGRINYADSVKGRFTVSRDNTRNTAYLQMSGLKDEDTAVYYCTAHRFVVGGNRVEDWRYWGQGTLVTVSS", "IC50": "1.9 nM"}

What does the data say about its IC50? Entry: ABII013 (VHH, humanized variant of ABII002) VHH: EVQLLESGGGLVLPGGSLRLSCVHSGPTFRTDTMGWFRQAPGKGREFVAAVTWNSGRINYADSVKGRFTVSRDNTRNAAYLQMSSLKDEDTAVYYCTAHRFVVGGNRVEDWRYWGQGTLVTVSS 1.6 nM

Would you mind doing ABII029 (VHH, humanized variant of ABII002) VHH: EVQLLESGGGLVQPGGSLRLSCVHSGPTFRTDTMGWFRQAPGKGREFVAAVTWNSGRINYADSVKGRFTISRDNSKNTLYLQMNSLRPEDTAVYYCAAHRFVVGGNRVEDWRYWGQGTLVTVSS as well? 89 nM

Would you mind doing ABII024 (VHH, humanized variant of ABII002) VHH: EVQLLESGGGLVQPGGSLRLSCAHSGPTFRTDTMGWFRQAPGKGREFVAAVTWNSGRINYADSVKGRFTISRDNSKNAAYLQMSSLRPEDTAVYYCAAHRFVVGGNRVEDWRYWGQGTLVTVSS as well? 6 nM

Would you mind doing ABII004 (VHH, humanized variant of ABII002) VHH: EVQLLESGGGLVQPGGSLRLSCVHSGPTFRTDTMGWFRQAPGKGREFVAAVTWNSGRINYADSVKGRFTVSRDNTRNAAYLQMSGLKDEDTAVYYCTAHRFVVGGNRVEDWRYWGQGTLVTVSS as well? 2.1 nM

Would you mind doing ABII056 (VHH, humanized variant of ABII050) VHH: EVQLLESGGGLVQPGGSLRLSCAASGRTFNNYNMGWFRQAPGKGREFVAAVSRSGVSTYYADSVKGRFTISRDNAKNAVYLQMNSLRPEDTAIYYCAAAYRGTAINVRRSYDSWGQGTLVTVSS as well? 29 nM

Would you mind doing ABII018 (VHH, humanized variant of ABII002) VHH: EVQLLESGGGLVQPGGSLRLSCVHSGPTFRTDTMGWFRQAPGKGREFVAAVTWNSGRINYADSVKGRFTVSRDNTRNAAYLQMSGLKPEDTAVYYCTAHRFVVGGNRVEDWRYWGQGTLVTVSS as well? 3.2 nM

Would you mind doing ABII059 (VHH, humanized variant of ABII050) VHH: EVQLLESGGGLVQPGGSLRLSCAASGRTFNNYNMGWFRQAPGKGREFVAAVSRSGVSTYYADSVKGRFTISRDNSKNTVYLQMNSLRPEDTAVYYCAAAYRGTAINVRRSYSSWGQGTLVTVSS as well? 33 nM

Would you mind doing ABII053 (VHH, humanized variant of ABII050) VHH: EVQLLESGGGLVQPGGSLRLSCAASGRTFNNYNMGWFRQAPGKGREFVAAVSRSGVSTYYADSVKGRFTISRDNAKNTVYLQMNSLRPEDTAIYYCGAAYRGTAINVRRSYDSWGQGTLVTVSS as well? 20 nM

Would you mind doing ABII003 (VHH, humanized variant of ABII002) VHH: EVQLLESGGGLVLPGGSLRLSCVHSGPTFRTDTMGWFRQAPGKGREFVAAVTWNSGRINYADSVKGRFTVSRDNTRNAAYLQMSGLKDEDTAVYYCTAHRFVVGGNRVEDWRYWGQGTLVTVSS as well? 2.1 nM
